The entries below come with measured Percent Effect values attached.
TARGET_OR_SYSTEM: Shiga toxin 2 (Escherichia coli O157:H7) (UniProt P09385+P09386)
PROCEDURE_DETAILS: E. coli 0.157:H7 Shiga Toxin SOP - stx2 screening assay
Format: functional
Parameters: scale not given: direction of the effect not stated beside the values
CONDITIONS: 30 µM
Give your result in % as a bare value.

>  <COMPOUND>
OC1CCN(Cc2cc3c(cc2Br)OCCO3)CC1

>  <Percent Effect (%)>
-8.4

$$$$

Look at this compound and give its reported Percent Effect. c1ccc(CN2C[C@@H]3CCCO[C@@H]3[C@H](Nc3ccccn3)C2)nc1
8.28

Cool, now CN(C)CC(=O)N1CCC2(CCN(Cc3ccccn3)C2=O)C1 (stereo unspecified)
9.53

Also O=C(c1n[nH]c(=O)c2ccccc12)N1CCCCC1c1ccn[nH]1 (stereo unspecified) , if possible.
17.2

Then this compound: CN(C)c1ccc(C(=O)N2CCN(C(=O)N3CCCCC3)CC2)nn1
-35

Same question, COc1ccccc1CC1CCCN(CC(N)=O)C1 (stereo unspecified) this time
28.2
